Assay: self-splicing fitness, log relative to wild type (ln ratio); higher = more splicing; Tetrahymena group I intron in knt gene, E. coli kanamycin selection, DiMSum; sequences stand for … in CUCUCU…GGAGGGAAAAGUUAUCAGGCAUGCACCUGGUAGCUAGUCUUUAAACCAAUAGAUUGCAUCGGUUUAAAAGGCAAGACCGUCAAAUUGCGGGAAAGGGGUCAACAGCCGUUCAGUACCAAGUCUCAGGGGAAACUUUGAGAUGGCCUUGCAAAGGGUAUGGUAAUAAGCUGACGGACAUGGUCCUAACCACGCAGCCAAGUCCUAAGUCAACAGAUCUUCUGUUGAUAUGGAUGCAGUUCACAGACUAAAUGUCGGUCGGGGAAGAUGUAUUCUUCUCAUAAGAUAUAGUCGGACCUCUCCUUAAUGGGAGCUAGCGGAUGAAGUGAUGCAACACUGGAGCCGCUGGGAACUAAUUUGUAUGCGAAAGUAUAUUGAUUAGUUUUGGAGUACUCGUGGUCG;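 note: selection with 25 µg/mL kanamycin versus none on LB agar overnight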
Details: 37 °C
Would you mind classing the entries by self-splicing fitness (ln)? Ranges: class 0: < -2; class 1: ≥ -2 and < -0.9; class 2: ≥ -0.9

Example cases with answers are listed next.
{"SEQUENCE_TEXT": "GGGUAGCAAUAUUACGCUGU", "DISCRETE_LABEL": "class 0"}
{"SEQUENCE_TEXT": "UGUGAGCAAUAUUACGAUAU", "DISCRETE_LABEL": "class 1"}
{"SEQUENCE_TEXT": "ACCUAGCAAUAUUACGCCUG", "DISCRETE_LABEL": "class 1"}
{"SEQUENCE_TEXT": "CACCAGCAAUAUUACGGAAG", "DISCRETE_LABEL": "class 2"}
{"SEQUENCE_TEXT": "CACUAGCAAUAUUACGAAGU", "DISCRETE_LABEL": "class 0"}

Challenge: Which self-splicing fitness (ln) category applies to AAUGAGCAAUAUUACGGGGU here?
Response given: class 0

Challenge: And then GACAAGCAAUAUUACGCUAC , what is it?
Response given: class 0

Challenge: Please give the result for GGUUAGCAAUAUUACGCACG too.
Response given: class 2

Challenge: Please give the result for CUGUAGCAAUAUUACGGGAC too.
Response given: class 2

Challenge: Lookup AGGUAGCAAUAUUACGCUGU
Response given: class 0
